# target-of-assay: T1, Human C5 (human, UniProt P01031 19-1676)
# T1 construct: The natural protein has a beta and an alpha chain; also called complement factor 5; complement component 5
# test-protocol: SPR, mAb captured by anti-hFc, 37C
Listed below: Kd values for each entry.
measured-metric: Kd (nM)

binder	measured-metric	readout-number
H4H12166P4 (antibody, human IgG4, V domains shown, human IgG4 Fc with S108P hinge mutation) VH: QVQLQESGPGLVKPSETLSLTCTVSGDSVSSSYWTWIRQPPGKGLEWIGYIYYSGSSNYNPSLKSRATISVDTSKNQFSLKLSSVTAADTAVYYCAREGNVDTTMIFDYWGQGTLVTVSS VL: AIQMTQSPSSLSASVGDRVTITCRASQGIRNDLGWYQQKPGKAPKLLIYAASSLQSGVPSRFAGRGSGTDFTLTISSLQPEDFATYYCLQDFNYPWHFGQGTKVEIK	Kd	0.93
H4H12166P6 (antibody, human IgG4, V domains shown, human IgG4 Fc with S108P hinge mutation) VH: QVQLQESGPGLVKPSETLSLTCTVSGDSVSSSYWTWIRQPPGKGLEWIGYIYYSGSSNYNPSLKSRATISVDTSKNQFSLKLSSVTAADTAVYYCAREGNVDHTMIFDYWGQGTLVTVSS VL: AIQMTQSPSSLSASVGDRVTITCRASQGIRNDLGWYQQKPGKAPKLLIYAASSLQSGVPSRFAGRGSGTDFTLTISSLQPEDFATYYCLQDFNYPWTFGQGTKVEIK	Kd	0.875
H4H12175P (antibody, human IgG4, V domains shown) VH: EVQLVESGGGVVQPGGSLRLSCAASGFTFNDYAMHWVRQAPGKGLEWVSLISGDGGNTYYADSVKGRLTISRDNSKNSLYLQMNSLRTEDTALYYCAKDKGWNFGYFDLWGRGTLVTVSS VL: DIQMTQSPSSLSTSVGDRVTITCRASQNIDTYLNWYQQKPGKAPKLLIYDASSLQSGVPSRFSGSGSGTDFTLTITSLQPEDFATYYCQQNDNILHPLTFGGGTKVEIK	Kd	2.15
H4H12171P (antibody, human IgG4, V domains shown) VH: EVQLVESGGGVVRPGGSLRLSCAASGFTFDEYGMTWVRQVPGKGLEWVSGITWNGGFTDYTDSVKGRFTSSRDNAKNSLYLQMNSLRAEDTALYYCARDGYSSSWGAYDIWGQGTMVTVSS VL: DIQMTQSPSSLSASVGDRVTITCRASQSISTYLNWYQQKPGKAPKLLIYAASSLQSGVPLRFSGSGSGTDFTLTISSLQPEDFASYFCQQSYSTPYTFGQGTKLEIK	Kd	6.27
H4H12168P (antibody, human IgG4, V domains shown) VH: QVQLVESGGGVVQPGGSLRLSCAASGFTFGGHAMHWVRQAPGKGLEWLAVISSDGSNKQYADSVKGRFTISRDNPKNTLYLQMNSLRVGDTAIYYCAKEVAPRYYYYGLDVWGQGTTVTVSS VL: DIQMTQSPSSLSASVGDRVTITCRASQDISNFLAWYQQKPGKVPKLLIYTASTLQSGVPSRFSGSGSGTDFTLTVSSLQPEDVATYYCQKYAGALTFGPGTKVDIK	Kd	18.5
